Origin of values: PubChem BioAssay (Tox21)

This section presents compounds with their documented Potency values.
- Assay summary: qHTS assay for identifying genotoxic compounds that show differential cytotoxicity against isogenic chicken DT40 cell lines with known DNA damage response pathways - Rev3 mutant cell line (AID 743014); note: potency is the fitted concentration of half-maximal effect; nearly all actives have a fitted effect of over 55% in size
- Reported conditions: chicken DT40 Rev3-/- viability, CellTiter-Glo, 40 h; series mostly up to 68.4 µM
Results filed as inconclusive are left out. Active and inactive are the calls of the source. Calls come from the whole dose curve; as a rule, active = well fitted cell-killing curve with a large enough effect in the repeat runs; inconclusive = weak or mixed curves, or effect the other way; inactive = no such curve, though single readings can be large or run the other way.

- CCc1cc(Cc2cc(CC)c(N)c(CC)c2)cc(CC)c1N: 61.1 µM (active)
- NC(=NCCCCCCN=C(N)/N=C(\N)Nc1ccc(Cl)cc1)/N=C(\N)Nc1ccc(Cl)cc1: 15.3 µM (active) [middle of 5 runs]
- O=C(OCC1CO1)C1CCCCC1C(=O)OCC1CO1 (stereo unspecified): 0.77 µM (active)
- CCN1/C(=C/C=C/c2sc3ccccc3[n+]2CC)Sc2ccccc21: 0.0298 µM (active)

Please report the recorded Potency for CC1=C(C(=O)OC(C)C)C(c2cccc([N+](=O)[O-])c2)C(C(=O)OC2CN(C(c3ccccc3)c3ccccc3)C2)=C(N)N1 (stereo unspecified) .
18.8 µM (active)

----------
- Assay summary: qHTS assay to identify small molecule agonists of the vitamin D receptor (VDR) signaling pathway - cell viability counter screen (AID 743224); note: nearly all actives have a fitted effect of over 50% in size
- Reported conditions: VDR-bla HEK293T viability, CellTiter-Glo luminescence, 16 h; series mostly up to 62.6 µM
Records with an inconclusive call do not appear. The source made the active and inactive calls. Calls follow the shape of the dose curve; as a rule, active = well fitted cell-killing curve with a large enough effect in the repeat runs; inconclusive = weak or mixed curves, or effect the other way; inactive = no such curve, though single readings can be large or run the other way.
Output constraint: value belongs to active, inactive

* CC[C@H](c1ccc(O)cc1)[C@@H](CC)c1ccc(O)cc1 | inactive
* O=C(O)c1c(Cl)cccc1Cl | inactive
* O=c1[nH]sc2ccccc12 | active
* COC(=O)C1=C(C)NC(C)=C(C(=O)OCCc2ccc(N3CCN(C(c4ccccc4)c4ccccc4)CC3)cc2)C1c1cccc([N+](=O)[O-])c1 (stereo not drawn) | inactive

I'd appreciate the recorded outcome for `CN(C)[C@@H]1C(=O)C(C(N)=O)=C(O)[C@@]2(O)C(=O)C3=C(O)c4c(O)ccc(Cl)c4[C@@H](O)[C@H]3C[C@@H]12` from this test.
inactive

I'd appreciate the recorded outcome for `COc1ccc(C(=O)/C(Br)=C\C(=O)O)cc1` from this test.
inactive

----------
- Study target: Thyrotropin-releasing hormone receptor (Homo sapiens) (UniProt P34981)
- Sequence (P34981 whole entry, looked up): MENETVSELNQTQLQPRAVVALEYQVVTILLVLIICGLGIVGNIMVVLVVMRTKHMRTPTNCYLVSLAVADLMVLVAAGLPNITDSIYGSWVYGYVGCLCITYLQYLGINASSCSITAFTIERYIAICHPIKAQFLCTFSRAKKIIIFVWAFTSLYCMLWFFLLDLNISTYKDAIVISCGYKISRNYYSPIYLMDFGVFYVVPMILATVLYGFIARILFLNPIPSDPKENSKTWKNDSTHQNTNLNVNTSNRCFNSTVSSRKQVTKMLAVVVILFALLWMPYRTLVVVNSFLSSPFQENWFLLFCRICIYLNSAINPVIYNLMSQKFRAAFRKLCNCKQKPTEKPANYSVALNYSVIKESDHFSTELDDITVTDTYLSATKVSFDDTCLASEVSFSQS
- Assay summary: qHTS assay to identify small molecule agonists of the thyrotropin-releasing hormone receptor (TRHR) signaling pathway (AID 1346891);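 note: HEK293 cells expressing TRHR with calcium dye readout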
- Reported conditions: TRHR-HEK293 calcium fluorescence, agonist mode; series mostly up to 57.6 µM
The source made the active and inactive calls. Calls follow the shape of the full dose curve.
Attribute measured: activation

Past entries and their recorded results:
• C=C(C)C(=O)OCC(O)COc1ccc(C(C)(C)c2ccc(OCC(O)COC(=O)C(=C)C)cc2)cc1 (configuration not stated) = inactive
• CC(C)(C)C(=O)OCOC(=O)[C@@H]1N2C(=O)[C@@H](NC(=O)[C@H](N)c3ccccc3)[C@H]2SC1(C)C = inactive
• CN(C)C(=O)C1(N2CCCCC2)CCN(CC[C@@]2(c3ccc(Cl)c(Cl)c3)CN(C(=O)c3ccccc3)CCO2)CC1 = inactive
• CC[C@@]1(O)C(=O)OCc2c1cc1n(c2=O)Cc2c-1nc1ccccc1c2/C=N/OC(C)(C)C = inactive
• O=C(Nc1cccc(Cl)c1)OCC#CCCl = inactive

Please report the recorded activation for CC(C)OC(=O)c1cc2c(OCC(O)CNC(C)(C)C)cccc2[nH]1 (configuration not stated) .
inactive

Please report the recorded activation for `O=C(NOCC1CC1)c1ccc(F)c(F)c1Nc1ccc(I)cc1Cl` .
inactive

Please report the recorded activation for `CC(C)=CCOc1ccc(/C=C/C(=O)c2ccc(OCC=C(C)C)cc2OCC(=O)O)cc1` .
inactive

Please report the recorded activation for `CC[C@H]1O[C@]2(CC[C@@H]1C)C[C@@H]1C[C@@H](C/C=C(\C)C[C@@H](C)/C=C/C=C3\CO[C@@H]4[C@H](O)C(C)=C[C@@H](C(=O)O1)[C@]34O)O2` .
inactive

Please report the recorded activation for `O=C(Oc1cccc2cccnc12)c1ccccc1` .
inactive

Please report the recorded activation for `CCCCN1CCCC[C@H]1C(=O)Nc1c(C)cccc1C` .
inactive

Please report the recorded activation for `CCC(CN)=C(c1ccccc1)c1ccccc1` .
inactive

Please report the recorded activation for `O=c1[nH]sc2cc(Cl)ccc12` .
inactive

Please report the recorded activation for `CO[Si](CCCNc1ccccc1)(OC)OC` .
inactive

Please report the recorded activation for `CCOc1ccc2nc3cc(N)ccc3c(N)c2c1` .
inactive

----------
- Assay summary: A CellTox Green Cytotoxicity Assay to monitor cytotoxicity in HepG2 cells - 32 hour (AID 1224883); note: nearly all actives have a fitted effect of over 50% in size
- Reported conditions: CellTox Green fluorescence; series mostly up to 76.8 µM
- Text: National Center for Advancing Translational Sciences [NCATS] NIH Chemical Genomics Center [NCGC] U.S. Environmental Protection Agency [EPA] National Institutes of Environmental Health Sciences [NIEHS] National Toxicology Program [NTP] Cell-based models are critical for drug discovery. […] Viable cells produce no appreciable increases in fluorescence. Therefore, the fluorescence signal produced by the binding interaction with dead cell DNA is proportional to cytotoxicity. […]
Inconclusive results are not listed. The source made the active and inactive calls. Calls follow the shape of the dose curve; as a rule, active = well fitted activation curve with a large enough effect in the repeat runs; inconclusive = weak or mixed curves; inactive = flat fitted curve, though single readings scatter.
Output constraint: value belongs to true (1) for active, false (0) for inactive

The examples below pair each entry with its known result.
- CSc1ccc(/C=C2/C(C)=C(CC(=O)O)c3cc(F)ccc32)cc1: false (0)
- CCOC(=O)O[C@]1(C(=O)OCCl)CC[C@H]2[C@@H]3CCC4=CC(=O)C=C[C@]4(C)[C@H]3[C@@H](O)C[C@@]21C: false (0)
- CC(C)(C)C(=O)OCOC(=O)C1N2C(=O)CC2S(=O)(=O)C1(C)C (stereo not given): false (0)
- CCCN(CCC)C(=O)C(CCC(=O)OCCCN1CCN(CCOC(=O)Cc2c(C)n(C(=O)c3ccc(Cl)cc3)c3ccc(OC)cc23)CC1)NC(=O)c1ccccc1 (stereo not given): true (1)

I'd appreciate the recorded outcome for `N/C(=N\N=C\c1ccc(Cl)cc1)N/N=C/c1ccc(Cl)cc1` from this test.
true (1)

I'd appreciate the recorded outcome for `CCCCCCCCCCC=O` from this test.
false (0)

I'd appreciate the recorded outcome for `CCCCCCCC/C=C\CCCCCCCCOCCO` from this test.
true (1)

I'd appreciate the recorded outcome for `N=C1C=CC(=C(c2ccc(N)cc2)c2ccc(N)cc2)C=C1` from this test.
false (0)

I'd appreciate the recorded outcome for `c1ccc(CSCc2ccccc2)cc1` from this test.
false (0)

I'd appreciate the recorded outcome for Cc1nc(-c2ccc3c(c2)CCN(CCC2CCC(NC(=O)/C=C/c4ccc(F)cc4)CC2)CC3)no1 (stereo not given) from this test.
false (0)

----------
- Assay summary: qHTS assay to identify small molecule antagonists of the sonic hedgehog signaling (Shh) pathway - cell viability counter screen (AID 1259367); note: nearly all actives have a fitted effect of over 55% in size
- Reported conditions: NIH/3T3 Gli1-Luc viability, CellTiter-Fluor, 24 h; series mostly up to 42.5 µM
Results filed as inconclusive are left out. Activity calls are given as the source filed them. Calls come from the whole dose curve; as a rule, active = well fitted cell-killing curve with a large enough effect in the repeat runs; inconclusive = weak or mixed curves, or effect the other way; inactive = no such curve, though single readings can be large or run the other way.
Output constraint: value belongs to active, inactive

The examples below pair each entry with its known result.
* C1CCCC1 | inactive
* Clc1ccc2n[nH]nc2c1 | inactive
* N/C(=N\N=C\c1ccc(Cl)cc1)N/N=C/c1ccc(Cl)cc1 | inactive
* Cc1ccc(O)c2ncccc12 | active
* CSc1ccc(C(=O)c2[nH]c(=O)[nH]c2C)cc1 | inactive

I'd appreciate the recorded outcome for `CC(=O)S[C@@H]1CC2=CC(=O)CC[C@]2(C)[C@H]2CC[C@@]3(C)[C@@H](CC[C@@]34CCC(=O)O4)[C@H]12` from this test.
inactive

I'd appreciate the recorded outcome for CCN(CC)CCCC(C)Nc1c2ccc(Cl)cc2nc2ccc(OC)cc12 (centres undefined) from this test.
inactive

I'd appreciate the recorded outcome for `O=[N+]([O-])c1cc(Cl)c(Cl)c(Cl)c1Cl` from this test.
inactive

I'd appreciate the recorded outcome for `C/C(=C(/OCCOc1ccc(Cl)cc1)c1ccc(Cl)cc1Cl)n1ccnc1` from this test.
inactive

----------
- Assay summary: qHTS assay to identify small molecule antagonists of the retinoid acid receptor (RAR) signaling pathway - cell viability counter screen (AID 1159551); note: nearly all actives have a fitted effect of over 35% in size; note: potency is the fitted concentration of half-maximal effect
- Reported conditions: C3RL4 cells viability, ATP luminescence (CellTiter-Glo), 6 h; series mostly up to 92.4 µM
Records with an inconclusive call do not appear. Activity calls are given as the source filed them. Calls come from the whole dose curve; as a rule, active = well fitted cell-killing curve with a large enough effect in the repeat runs; inconclusive = weak or mixed curves, or effect the other way; inactive = flat fitted curve, though single readings scatter.
Attribute measured: Potency

Past entries and their recorded results:
• CC(C)(C)C(=O)OCOC(=O)[C@@H]1N2C(=O)[C@@H](NC(=O)[C@H](N)c3ccccc3)[C@H]2SC1(C)C = inactive
• CCOC(=O)/C=C(C)/C=C/C=C(C)/C=C/c1c(C)cc(OC)c(C)c1C = inactive
• CCN1/C(=C/C=C/c2sc3ccccc3[n+]2CC)Sc2ccccc21 = 14.6 µM (active)
• C[n+]1ccn(Cc2ccccc2)c1 = inactive
• CCCCCCCCCCCCCCCS(=O)(=O)Oc1ccccc1 = inactive

We next turn to a different compound, shown below.
Please report the recorded Potency for `Cc1cc(C2CCCCC2)n(O)c(=O)c1` .
inactive
